Target: glucagon receptor (GCGR) (Homo sapiens)
Sequence (P47871 26-477, species assumed): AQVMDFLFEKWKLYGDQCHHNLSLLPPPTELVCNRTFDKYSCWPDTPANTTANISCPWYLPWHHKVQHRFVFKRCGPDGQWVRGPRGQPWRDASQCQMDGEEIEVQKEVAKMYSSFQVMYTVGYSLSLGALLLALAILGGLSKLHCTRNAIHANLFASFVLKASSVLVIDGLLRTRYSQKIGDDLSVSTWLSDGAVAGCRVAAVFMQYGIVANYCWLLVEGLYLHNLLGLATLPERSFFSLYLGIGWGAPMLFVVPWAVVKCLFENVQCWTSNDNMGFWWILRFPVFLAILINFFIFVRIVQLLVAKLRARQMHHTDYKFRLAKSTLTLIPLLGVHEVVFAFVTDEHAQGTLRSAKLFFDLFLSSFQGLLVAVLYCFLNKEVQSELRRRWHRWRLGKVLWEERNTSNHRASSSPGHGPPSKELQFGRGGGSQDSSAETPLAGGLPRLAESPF
Assay: Glucagon cAMP inhibition assay (Cisbio cAMP Dynamic 2 HTRF)
Details: GCGR overexpressed CHO-K1 cells or human primary hepatocytes (not specified); glucagon at EC50
ENDPOINT_LABEL: IC50 (nM)

# COMPOUND, U, IC50
rows = [
    ("CC(C)[C@@H](Nc1ccc(C(=O)NCCC(=O)O)cc1)c1ccc(-c2nc3ccccc3o2)cc1", "nM", 1080),
    ("CCOC(=O)CCNC(=O)c1ccc(NC(CC(C)C)c2ccc(-c3noc(C(C)(C)C)n3)cc2)cc1 (stereo not shown)", "nM", 395),
    ("COC(=O)CCNC(=O)c1ccc(N[C@H](c2ccc(-c3nnc(-c4ccccc4)o3)cc2)C(C)C)cc1", "nM", 28),
]

(A) CC(C)C(Nc1ccc(-c2nnc(-c3ccc(F)cc3)o2)cc1)c1ccc(C(=O)NCCC(=O)O)cc1 (stereo not shown)
(B) CCOC(=O)CCNC(=O)c1ccc(N[C@@H](c2ccc(-c3nc4ccccc4o3)cc2)C(C)C)cc1
Which has the higher IC50, A or B ? Indicate your choice by writing its label.
A
(A: 4500 nM, B: 124 nM)

(I) CC(C)CC(Nc1ccc(C(=O)NCCC(=O)O)cc1)c1ccc(-c2nnc(C(C)(C)C)o2)cc1 (stereo not shown)
(II) CCOC(=O)CCNC(=O)c1ccc(N[C@H](c2ccc(-c3noc(C(F)(F)F)n3)cc2)C(C)CC)cc1 (stereo partly shown)
# min-compare on IC50 between I and II Indicate your choice by writing its label.
II
